- system: HDAC1 (Homo sapiens (Human), UniProt Q13547)
- Sequence (Q13547 whole entry): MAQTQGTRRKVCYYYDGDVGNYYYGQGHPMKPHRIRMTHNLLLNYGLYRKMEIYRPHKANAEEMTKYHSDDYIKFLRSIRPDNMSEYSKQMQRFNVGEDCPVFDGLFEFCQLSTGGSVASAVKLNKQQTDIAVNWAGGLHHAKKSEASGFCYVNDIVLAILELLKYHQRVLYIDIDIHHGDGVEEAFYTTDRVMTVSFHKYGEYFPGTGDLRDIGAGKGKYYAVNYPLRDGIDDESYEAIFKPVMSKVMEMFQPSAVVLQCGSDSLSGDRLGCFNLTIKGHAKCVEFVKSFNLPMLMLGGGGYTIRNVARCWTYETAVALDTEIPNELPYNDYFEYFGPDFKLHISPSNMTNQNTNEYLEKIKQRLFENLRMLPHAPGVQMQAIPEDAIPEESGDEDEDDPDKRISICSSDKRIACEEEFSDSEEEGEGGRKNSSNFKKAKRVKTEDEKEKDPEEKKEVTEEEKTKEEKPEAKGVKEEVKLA
- run.description: In vitro inhibition of subtype HDAC1 (HDAC1 Inhibitor Drug Screening Kit, Biovision)
- Type: biochemical
- condition.notes: 10 μM; read-out: % Inhibition towards HDAC1
measured.parameter: inhibition at 10 µM (%)
Give the value in % but do not write % after it.

Inquiry: // inhibition at 10 µM lookup, key: COc1cc2ncnc(Nc3ccc(C(=O)Nc4cc(-c5ccco5)ccc4N)cc3)c2cc1OC [Compound V-25]
Reply text: 53.8

Inquiry: // inhibition at 10 µM lookup, key: CS(=O)(=O)CCNCc1ccc(-c2ccc3ncnc(Nc4ccc(C(=O)Nc5ccccc5N)cc4)c3c2)o1 [Compound V-19]
Reply text: 80.2

Inquiry: // inhibition at 10 µM lookup, key: COCCOc1cc2ncnc(Nc3ccc(C(=O)Nc4ccncc4N)cc3)c2cc1OCCOC [Compound V-16]
Reply text: 87.4

Inquiry: // inhibition at 10 µM lookup, key: COc1ccc2ncnc(Nc3ccc(C(=O)Nc4cc(F)ccc4N)cc3)c2c1 [Compound V-6]
Reply text: 50.1

Inquiry: // inhibition at 10 µM lookup, key: COc1cc2ncnc(Nc3ccc(C(=O)Nc4cc(F)ccc4N)cc3)c2cc1OCCCN1CCOCC1 [Compound V-18]
Reply text: 80.8

Inquiry: // inhibition at 10 µM lookup, key: CS(=O)(=O)CCNCc1ccc(-c2ccc3ncnc(Nc4ccc(C(=O)Nc5cc(F)ccc5N)cc4)c3c2)o1 [Compound V-20]
Reply text: 77.4

====

- System: Hep3B2.1-7 human liver cancer cells
- run.description: In vitro anti-proliferative effect, CCK-8 method, Hep3B
- Type: cell-based
- condition.notes: Homo sapiens; Hep3B cell strain, compound at 10 μM, CCK-8 method
measured.parameter: inhibition at 10 µM

Inquiry: // inhibition at 10 µM lookup, key: CS(=O)(=O)CCNCc1ccc(-c2ccc3ncnc(Nc4ccc(C(=O)Nc5ccccc5N)cc4)c3c2)o1
Reply text: 25.4%

Inquiry: // inhibition at 10 µM lookup, key: Nc1ccccc1NC(=O)c1ccc(CNc2ncnc3ccccc23)cc1
Reply text: -12.3%

Inquiry: // inhibition at 10 µM lookup, key: CC(=O)Nc1ccc2ncnc(NCc3ccc(C(=O)Nc4ccccc4N)cc3)c2c1
Reply text: 17.5%

Inquiry: // inhibition at 10 µM lookup, key: COc1cc2ncnc(Nc3ccc(C(=O)Nc4cc(-c5cccs5)ccc4N)cc3)c2cc1OC
Reply text: 1%

====

- Test system: A549 human lung cancer cells
- run.description: In vitro anti-proliferative effect, CCK-8 method, A549
- Type: cell-based
- condition.notes: Homo sapiens, A549; 100 μM
Class T: inhibition at 100 µM at least 40%. Class F: inhibition at 100 µM below 40%.

Inquiry: Reported inhibition at 100 µM reaches at least 40% for Nc1ccc(F)cc1NC(=O)c1ccc(CNc2ncnc3ccccc23)cc1 ?
Reply text: T

Inquiry: Reported inhibition at 100 µM reaches at least 40% for Nc1ccccc1NC(=O)c1ccc(CNc2ncnc3ccccc23)cc1 ?
Reply text: T

Inquiry: Reported inhibition at 100 µM reaches at least 40% for COc1cc2ncnc(Nc3ccc(C(=O)Nc4cc(-c5ccccc5)ccc4N)cc3)c2cc1OC ?
Reply text: F

Inquiry: Reported inhibition at 100 µM reaches at least 40% for Nc1ccc(F)cc1NC(=O)c1ccc(Nc2ncnc3ccccc23)cc1 ?
Reply text: T

Inquiry: Reported inhibition at 100 µM reaches at least 40% for COC(=O)Cc1ccc2ncnc(Nc3ccc(C(=O)Nc4ccccc4N)cc3)c2c1 ?
Reply text: T

Inquiry: Reported inhibition at 100 µM reaches at least 40% for CC(=O)Nc1ccc2ncnc(NCc3ccc(C(=O)Nc4ccccc4N)cc3)c2c1 ?
Reply text: F

Inquiry: Reported inhibition at 100 µM reaches at least 40% for COc1cc2ncnc(Nc3ccc(C(=O)Nc4ccccc4N)cc3)c2cc1OCCCN1CCOCC1 ?
Reply text: T

Inquiry: Reported inhibition at 100 µM reaches at least 40% for COc1cc2ncnc(Nc3ccc(C(=O)Nc4cc(F)ccc4N)cc3)c2cc1OCCCN1CCOCC1 ?
Reply text: T

Inquiry: Reported inhibition at 100 µM reaches at least 40% for COc1ccc2ncnc(Nc3ccc(C(=O)Nc4cc(F)ccc4N)cc3)c2c1 ?
Reply text: T

Inquiry: Reported inhibition at 100 µM reaches at least 40% for COc1cccc2ncnc(Nc3ccc(C(=O)Nc4ccccc4N)cc3)c12 ?
Reply text: F

Inquiry: Reported inhibition at 100 µM reaches at least 40% for COc1cc2ncnc(Nc3ccc(C(=O)Nc4cc(-c5ccco5)ccc4N)cc3)c2cc1OC ?
Reply text: F

Inquiry: Reported inhibition at 100 µM reaches at least 40% for Nc1cnccc1NC(=O)c1ccc(Nc2ncnc3ccccc23)cc1 ?
Reply text: T

Inquiry: Reported inhibition at 100 µM reaches at least 40% for Nc1ccccc1NC(=O)c1ccc(CNc2ncnc3c(F)cccc23)cc1 ?
Reply text: T

Inquiry: Reported inhibition at 100 µM reaches at least 40% for COc1ccc2ncnc(Nc3ccc(C(=O)Nc4ccccc4N)cc3)c2c1 ?
Reply text: F

Inquiry: Reported inhibition at 100 µM reaches at least 40% for CC(=O)Nc1ccc2ncnc(Nc3ccc(C(=O)Nc4ccccc4N)cc3)c2c1 ?
Reply text: T

Inquiry: Reported inhibition at 100 µM reaches at least 40% for CS(=O)(=O)CCNCc1ccc(-c2ccc3ncnc(Nc4ccc(C(=O)Nc5cc(F)ccc5N)cc4)c3c2)o1 ?
Reply text: T

Inquiry: Reported inhibition at 100 µM reaches at least 40% for COc1cc2ncnc(Nc3ccc(C(=O)Nc4ccncc4N)cc3)c2cc1OC ?
Reply text: F

Inquiry: Reported inhibition at 100 µM reaches at least 40% for Nc1ccc(F)cc1NC(=O)c1ccc(Nc2ncnc3c(F)cccc23)cc1 ?
Reply text: T

Inquiry: Reported inhibition at 100 µM reaches at least 40% for COc1cccc2ncnc(Nc3ccc(C(=O)Nc4ccncc4N)cc3)c12 ?
Reply text: F

Inquiry: Reported inhibition at 100 µM reaches at least 40% for CC(=O)Nc1ccc2ncnc(NCc3ccc(C(=O)Nc4ccncc4N)cc3)c2c1 ?
Reply text: F

Inquiry: Reported inhibition at 100 µM reaches at least 40% for Nc1ccccc1NC(=O)c1ccc(Nc2ncnc3ccccc23)cc1 ?
Reply text: T

Inquiry: Reported inhibition at 100 µM reaches at least 40% for Nc1ccccc1NC(=O)c1ccc(Nc2ncnc3ccc(F)cc23)cc1 ?
Reply text: T
